The following compounds are listed with their measured pIC50 values.
Target: CDK1-NanoLuc fusion with CCNB1 in 293T or 293 cells (Homo sapiens, UniProt P06493)
Construct: host or cells: 293T (ATCC CRL-3216) or 293 (ATCC CRL-1573)
Sequence (P06493 whole entry, the tested form may be a part): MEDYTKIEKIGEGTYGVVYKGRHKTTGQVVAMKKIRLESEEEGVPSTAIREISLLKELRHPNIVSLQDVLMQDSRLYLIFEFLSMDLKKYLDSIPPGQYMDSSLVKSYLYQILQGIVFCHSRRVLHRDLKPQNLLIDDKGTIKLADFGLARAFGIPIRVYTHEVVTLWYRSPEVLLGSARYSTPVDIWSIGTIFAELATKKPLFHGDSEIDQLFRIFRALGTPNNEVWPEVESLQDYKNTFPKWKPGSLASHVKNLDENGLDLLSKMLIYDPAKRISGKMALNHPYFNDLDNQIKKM
Sequence (P14635 whole entry partner, the tested form may be a part): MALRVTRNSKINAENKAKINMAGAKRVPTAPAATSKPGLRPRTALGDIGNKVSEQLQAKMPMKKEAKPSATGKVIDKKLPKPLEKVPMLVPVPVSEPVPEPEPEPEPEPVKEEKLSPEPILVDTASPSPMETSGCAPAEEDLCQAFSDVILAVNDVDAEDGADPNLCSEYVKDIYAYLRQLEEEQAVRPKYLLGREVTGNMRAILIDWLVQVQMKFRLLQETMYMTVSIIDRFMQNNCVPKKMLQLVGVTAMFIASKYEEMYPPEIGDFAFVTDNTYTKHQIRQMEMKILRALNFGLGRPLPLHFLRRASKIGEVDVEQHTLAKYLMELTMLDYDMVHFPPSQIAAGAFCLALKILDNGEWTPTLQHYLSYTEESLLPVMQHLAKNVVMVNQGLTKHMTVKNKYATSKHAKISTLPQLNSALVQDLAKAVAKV
Assay: NanoBRET Target Engagement (TE) Intracellular Kinase Assay, CDK1/CCNB1
Assay type: cell-based
Settings: NanoBRET TE intracellular kinase assay, 2-hour incubation, read-out: NanoBRET-CDK1/B1 IC50
pIC50: −log10 of the molar value.
readout: pIC50

# compound, readout, reported
records = [
    ("Cc1ccc(OCC(=O)Nc2cc([C@H]3CC[C@@H](OC(=O)NC(C)C)C3)[nH]n2)c(C=O)c1O [Compound 56]", "pIC50", 8.32),
    ("CC(C)NC(=O)O[C@@H]1CC[C@H](c2cc(NC(=O)c3cc(-c4c(F)ccc(O)c4C=O)nn3C)n[nH]2)C1 [Compound 45]", "pIC50", 8.17),
    ("COc1cc(O)c(C=O)c(OCC(=O)Nc2cc([C@H]3CC[C@@H](OC(=O)N4C[C@@H]5C[C@H]4CO5)C3)[nH]n2)c1 [Compound 204]", "pIC50", 7.91),
    ("CC(C)NC(=O)O[C@@H]1CC[C@H](c2cc(NC(=O)c3cc(-c4ccc(O)c(C=O)c4)nn3C)n[nH]2)C1 [Compound 31]", "pIC50", 7.69),
]
